Assignment: determine reported target mRNA inhibition for the given sequences.
Target: MALAT1
Settings: ASO, A431, 0.005 µM
After the bases stand the sugars from the 5' end (letter, count) and the backbone: PS all phosphorothioate, else s phosphorothioate and o phosphodiester by linkage. Methylation of C is not given here. k = constrained ethyl (cEt); d = 2'-deoxy (DNA)
Write the number in % without appending the unit.

Given TAGTTTACCACCTTTT (sugars k3 d10 k3, PS) , state its recorded target mRNA inhibition.
15

State the recorded target mRNA inhibition for this entry: GATTTGAACCCCGTCC (sugars k3 d10 k3, PS)
-2

Using the record for CCCCCCCAAGATTGCC (sugars k3 d10 k3, PS) , report its target mRNA inhibition.
-16

Reported target mRNA inhibition for AGTAGACCAACTAAGC (sugars k3 d10 k3, PS) : what is it?
25

Fill in: target mRNA inhibition of AGTAAGAATCTCAGGG (sugars k3 d10 k3, PS) is ___
45

Would you mind telling me what target mRNA inhibition value was observed for CCACTCGCTTTCCCTG (sugars k3 d10 k3, PS) ?
41

Which target mRNA inhibition value is on record for GAAGAATACCATCTGA (sugars k3 d10 k3, PS) ?
5

So what does the record say about target mRNA inhibition for GGACATTGCCTCTTCA (sugars k3 d10 k3, PS) ?
54

Please give the measured target mRNA inhibition for this sequence: CCCCAGTCCTTTACAG (sugars k3 d10 k3, PS)
9

Data request, read-out target mRNA inhibition, for ATCTTAGTAACCTATT (sugars k3 d10 k3, PS)
17

Data request, read-out target mRNA inhibition, for CTGAACTATCACAATT (sugars k3 d10 k3, PS)
28

----------
So I've got a bunch of sequences here, and I need their target mRNA inhibition values.
Molecular target: IRF5
Settings: ASO, KARPAS-229, 1.33333 µM
After the bases stand the sugars from the 5' end (letter, count) and the backbone: PS all phosphorothioate, else s phosphorothioate and o phosphodiester by linkage. Methylation of C is not given here. e = 2'-O-(2-methoxyethyl) (MOE); k = constrained ethyl (cEt); d = 2'-deoxy (DNA)
Please state the figure in %; there is no need to write the unit.

State the recorded target mRNA inhibition for this entry: GGTTCTTGGACTCTCA (sugars k2 d8 e4 k2, PS)
51

Field request: target mRNA inhibition | item: TTATTTCTGCTCCAGG (sugars k3 d10 k3, PS)
66

Data request, read-out target mRNA inhibition, for AGGAGTGAGACGAGCA (sugars k3 d10 k3, PS)
41

Given GGTTCTTGGACTCTCA (sugars k2 d9 e3 k2, PS) , state its recorded target mRNA inhibition.
64

Using the record for CCATTCTATGCCTTTT (sugars kkddddddddddkeke, PS) , report its target mRNA inhibition.
45

// query target mRNA inhibition value for entry GTGACTGTATTACCTA (sugars k3 d10 k3, PS)
39

I am curious: what target mRNA inhibition value has been reported for GTGAGACGAGCAAAGG (sugars k3 d10 k3, PS) ?
49

Field request: target mRNA inhibition | item: GTCTTGACCTCCCGCT (sugars k2 d9 e3 k2, PS)
32

Quick one: target mRNA inhibition of CCAATTTTGCATTCCA (sugars k3 d10 k3, PS) ?
74

Param item = GTGAGTCTCAAACCAG (sugars k3 d9 k3 e1, PS) ; retrieve measured target mRNA inhibition.
39

// target mRNA inhibition lookup, key: AGCTTGGTCTTGACCT (sugars k3 d10 k3, PS)
41

Fill blank: measured target mRNA inhibition of the sequence TGAATTTTGTGACTGT (sugars k3 d10 k3, PS) is ____.
59

If you can, please state the reported target mRNA inhibition value of ACCACTGTGTACCCCA (sugars kkddddddddddkeke, PS) .
38

Where do the numbers come from? From the OligoGym collection.
